Data origin, for the record: patent US12577245B2

- system-under-test: Bcl-2 WT (Homo sapiens, UniProt P10415)
- Sequence (P10415 whole entry): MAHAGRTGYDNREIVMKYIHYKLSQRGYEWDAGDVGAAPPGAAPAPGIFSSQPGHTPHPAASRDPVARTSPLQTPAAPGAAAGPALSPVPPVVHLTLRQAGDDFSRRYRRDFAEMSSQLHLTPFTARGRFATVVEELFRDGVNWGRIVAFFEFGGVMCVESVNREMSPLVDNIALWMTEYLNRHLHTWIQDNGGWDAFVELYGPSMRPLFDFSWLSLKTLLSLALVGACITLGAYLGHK
- assay-procedure: Bcl-2 WT inhibition, fluorescence polarization (Flu-BIM tracer) binding assay
- cond: FP; 20 nM Bcl2, 5 nM Flu-BIM, 1 h incubation; read-out: Bcl-2 w.t. (FP)
Threshold 20 nM. IC50 below it: 1 (yes). IC50 at it or above: 0 (no).

| compound | class-label |
| --- | --- |
| CC1(C)CCC(CN2CCN(c3ccc(C(=O)NS(=O)(=O)c4ccc(NCC5CCOCC5)c([N+](=O)[O-])c4)c(Oc4cnc5[nH]ccc5c4)c3)CC2)=C(c2ccsc2CN2CCOCC2)C1 [Example 25] | 0 (no) |
| CC1(C)CCC(CN2CCN(c3ccc(C(=O)NS(=O)(=O)c4ccc(NC[C@H]5CC[C@](C)(O)CC5)c([N+](=O)[O-])c4)c(Oc4cnc5[nH]ccc5c4)c3)CC2)=C(c2cc(-c3c(F)cc(C(C)(C)C(=O)O)cc3F)cs2)C1 [Example 82] | 1 (yes) |
| Cc1sccc1C1=C(CN2CCN(c3ccc(C(=O)NS(=O)(=O)c4ccc(NCC5CCOCC5)c([N+](=O)[O-])c4)c(Oc4cnc5[nH]ccc5c4)c3)CC2)CCC(C)(C)C1 [Example 1] | 1 (yes) |
| CC1(C)CCC(CN2CCN(c3ccc(C(=O)NS(=O)(=O)c4ccc(NC[C@H]5CC[C@](C)(O)CC5)c([N+](=O)[O-])c4)c(Oc4cnc5[nH]ccc5c4)c3)CC2)=C(c2cc(-c3ccc(F)c(F)c3)cs2)C1 [Example 51] | 0 (no) |
| Cc1cscc1C1=C(CN2CCN(c3ccc(C(=O)NS(=O)(=O)c4ccc(NCC5CCOCC5)c([N+](=O)[O-])c4)c(Oc4cnc5[nH]ccc5c4)c3)CC2)CCC(C)(C)C1 [Example 2] | 1 (yes) |
| CC1(C)CCC(CN2CCN(c3ccc(C(=O)NS(=O)(=O)c4ccc(NC[C@H]5CC[C@](C)(O)CC5)c([N+](=O)[O-])c4)c(Oc4cnc5[nH]ccc5c4)c3)CC2)=C(c2cc(-c3ccc(C(F)(F)F)cc3)cs2)C1 [Example 41] | 0 (no) |
| CC1(C)CCC(CN2CCN(c3ccc(C(=O)NS(=O)(=O)c4ccc(NC[C@H]5CC[C@](C)(O)CC5)c([N+](=O)[O-])c4)c(Oc4cnc5[nH]ccc5c4)c3)CC2)=C(c2cc(-c3cc(C(C)(C)O)ccc3F)cs2)C1 [Example 75] | 1 (yes) |
| CC(C)c1sccc1C1=C(CN2CCN(c3ccc(C(=O)NS(=O)(=O)c4ccc(NCC5CCOCC5)c([N+](=O)[O-])c4)c(Oc4cnc5[nH]ccc5c4)c3)CC2)CCC(C)(C)C1 [Example 11] | 0 (no) |

###

- system-under-test: UniProt P10415
- assay-procedure: Bcl-2 WT inhibition, fluorescence polarization (Flu-BIM tracer) binding assay
- cond: FP; 20 nM Bcl2, 5 nM Flu-BIM, 1 h incubation; read-out: Bcl-2 w.t. (FP)
Threshold 20 nM. IC50 below it: 1. IC50 at it or above: 0.

| molecule | class-label |
| --- | --- |
| CC1(C)CCC(CN2CCN(c3ccc(C(=O)NS(=O)(=O)c4ccc(NC[C@H]5CC[C@@](C)(O)CC5)c([N+](=O)[O-])c4)c(Oc4cnc5[nH]ccc5c4)c3)CC2)=C(c2cc(-c3ccc(F)cc3)cs2)C1 [Example 36] | 0 |
| CC1(C)CCC(CN2CCN(c3ccc(C(=O)NS(=O)(=O)c4ccc(NC[C@H]5COCCO5)c([N+](=O)[O-])c4)c(Oc4cnc5[nH]ccc5c4)c3)CC2)=C(c2cc(CN3CCC(F)(F)CC3)cs2)C1 [Example 32] | 1 |
| CC1(C)CCC(CN2CCN(c3ccc(C(=O)NS(=O)(=O)c4ccc(NC[C@H]5CC[C@@](C)(O)CC5)c([N+](=O)[O-])c4)c(Oc4cnc5[nH]ccc5c4)c3)CC2)=C(c2cc(CN3CCOCC3)cs2)C1 [Example 23] | 1 |

###

- Tested on: RS4; 11Bcl-2-G101V cells
- assay-procedure: CellTiter-Glo (CTG) cell viability assay in RS4;11-Bcl-2-G101V cells
- Assay type: cell-based
- cond: 72 h, 10% FBS, 3 days
Consider the following molecules and their measured IC50 readings.

| molecule | display-unit | IC50 |
| --- | --- | --- |
| CC1(C)CCC(CN2CCN(c3ccc(C(=O)NS(=O)(=O)c4ccc(NC[C@H]5CC[C@](C)(O)CC5)c([N+](=O)[O-])c4)c(Oc4cnc5[nH]ccc5c4)c3)CC2)=C(c2cc(-c3ccc(F)cc3)cs2)C1 [Example 37] | nM | 290 |
| Cc1cscc1C1=C(CN2CCN(c3ccc(C(=O)NS(=O)(=O)c4ccc(NCC5CCOCC5)c([N+](=O)[O-])c4)c(Oc4cnc5[nH]ccc5c4)c3)CC2)CCC(C)(C)C1 [Example 2] | nM | 1300 |
| CC1(C)CCC(CN2CCN(c3ccc(C(=O)NS(=O)(=O)c4ccc(NC[C@H]5COCCO5)c([N+](=O)[O-])c4)c(Oc4cnc5[nH]ccc5c4)c3)CC2)=C(c2cc(-c3ccc(F)c(F)c3)cs2)C1 [Example 50] | nM | 1950 |

###

- Tested on: RS4; 11Bcl-2-D103E cells
- assay-procedure: CellTiter-Glo (CTG) cell viability assay in RS4;11-BCL2-D103E cells
- Assay type: cell-based
- cond: 72 h, 10% FBS, 3 days
pIC50: −log10 of the molar value.
Consider the following molecules and their measured pIC50 readings.
assay-endpoint: pIC50

| molecule | data-value |
| --- | --- |
| CC1(C)CCC(CN2CCN(c3ccc(C(=O)NS(=O)(=O)c4ccc(NCC5CCOCC5)c([N+](=O)[O-])c4)c(Oc4cnc5[nH]ccc5c4)c3)CC2)=C(c2ccc(Cl)cc2)C1 [ABT-199, Venetoclax, reference compound] | 5.82 |
| C[C@H](O)c1cc(F)c(-c2csc(C3=C(CN4CCN(c5ccc(C(=O)NS(=O)(=O)c6ccc(NC[C@H]7CC[C@](C)(O)CC7)c([N+](=O)[O-])c6)c(Oc6cnc7[nH]ccc7c6)c5)CC4)CCC(C)(C)C3)c2)c(F)c1 | 7.01 |
| C[C@@H](O)c1cc(F)c(-c2csc(C3=C(CN4CCN(c5ccc(C(=O)NS(=O)(=O)c6ccc(NC[C@H]7CC[C@](C)(O)CC7)c([N+](=O)[O-])c6)c(Oc6cnc7[nH]ccc7c6)c5)CC4)CCC(C)(C)C3)c2)c(F)c1 | 7.32 |
| CC1(C)CCC(CN2CCN(c3ccc(C(=O)NS(=O)(=O)c4ccc(NC[C@H]5CC[C@](C)(O)CC5)c([N+](=O)[O-])c4)c(Oc4cnc5[nH]ccc5c4)c3)CC2)=C(c2cc(-c3c(F)cc(C(C)(C)O)cc3F)cs2)C1 | 6.74 |

###

- system-under-test: Bcl-2 WT (Homo sapiens)
- assay-procedure: Bcl-2 WT inhibition, fluorescence polarization (Flu-BIM tracer) binding assay
- cond: FP; 20 nM Bcl2, 5 nM Flu-BIM, 1 h incubation; read-out: Bcl-2 w.t. (FP)
assay-endpoint: IC50 (nM)

| compound | display-unit | data-value |
| --- | --- | --- |
| CC(C)c1ccccc1-c1csc(C2=C(CN3CCN(c4ccc(C(=O)NS(=O)(=O)c5ccc(NC[C@H]6COCCO6)c([N+](=O)[O-])c5)c(Oc5cnc6[nH]ccc6c5)c4)CC3)CCC(C)(C)C2)c1 | nM | 31.6 |
| CC1(C)CCC(CN2CCN(c3ccc(C(=O)NS(=O)(=O)c4ccc(NC[C@H]5COCCO5)c([N+](=O)[O-])c4)c(Oc4cnc5[nH]ccc5c4)c3)CC2)=C(c2cc3c(s2)CCN(c2ccc(F)cc2)C3)C1 | nM | 27.6 |
| CC1(C)CCC(CN2CCN(c3ccc(C(=O)NS(=O)(=O)c4ccc(NC[C@H]5CC[C@](C)(O)CC5)c([N+](=O)[O-])c4)c(Oc4cnc5[nH]ccc5c4)c3)CC2)=C(c2cc(-c3ccc4c(c3)CCC4(C)O)cs2)C1 (stereo partly shown) | nM | 15.8 |
| CC1(C)CCC(CN2CCN(c3ccc(C(=O)NS(=O)(=O)c4ccc(NC[C@H]5COCCO5)c([N+](=O)[O-])c4)c(Oc4cnc5[nH]ccc5c4)c3)CC2)=C(c2cc(CN3CCC(N4CCOCC4)CC3)cs2)C1 | nM | 20.7 |

###

- system-under-test: UniProtKB P10415
- assay-procedure: Bcl-2 WT inhibition, fluorescence polarization (Flu-BIM tracer) binding assay
- cond: FP; 20 nM Bcl2, 5 nM Flu-BIM, 1 h incubation; read-out: Bcl-2 w.t. (FP)
pIC50: −log10 of the molar value.
Consider the following molecules and their measured pIC50 readings.
assay-endpoint: pIC50

| molecule | data-value |
| --- | --- |
| CC1(C)CCC(CN2CCN(c3ccc(C(=O)NS(=O)(=O)c4ccc(NC[C@H]5CC[C@](C)(O)CC5)c([N+](=O)[O-])c4)c(Oc4cnc5[nH]ccc5c4)c3)CC2)=C(c2cc(-c3ccc(F)cc3F)cs2)C1 | 7.67 |
| CC1(C)CCC(CN2CCN(c3ccc(C(=O)NS(=O)(=O)c4ccc(NC[C@H]5COCCO5)c([N+](=O)[O-])c4)c(Oc4cnc5[nH]ccc5c4)c3)CC2)=C(c2cc(CN3CCN(C4COC4)CC3)cs2)C1 | 7.59 |
| CC1(C)CCC(CN2CCN(c3ccc(C(=O)NS(=O)(=O)c4ccc(NC[C@H]5CC[C@](C)(O)CC5)c([N+](=O)[O-])c4)c(Oc4cnc5[nH]ccc5c4)c3)CC2)=C(c2cc(-c3c(F)cc(C(C)(C)CO)cc3F)cs2)C1 | 7.41 |
| Cc1ccc(C2=C(CN3CCN(c4ccc(C(=O)NS(=O)(=O)c5ccc(NCC6CCOCC6)c([N+](=O)[O-])c5)c(Oc5cnc6[nH]ccc6c5)c4)CC3)CCC(C)(C)C2)s1 | 7.79 |
| CC1(C)CCC(CN2CCN(c3ccc(C(=O)NS(=O)(=O)c4ccc(NC[C@H]5CC[C@](C)(O)CC5)c([N+](=O)[O-])c4)c(Oc4cnc5[nH]ccc5c4)c3)CC2)=C(c2cc(-c3cc(F)c(F)cc3F)cs2)C1 | 7.56 |
| CC1(C)CCC(CN2CCN(c3ccc(C(=O)NS(=O)(=O)c4ccc(NCC5CCOCC5)c([N+](=O)[O-])c4)c(Oc4cnc5[nH]ccc5c4)c3)CC2)=C(c2csc(C(F)(F)F)c2)C1 | 7.56 |
| CC1(C)CCC(CN2CCN(c3ccc(C(=O)NS(=O)(=O)c4ccc(NC[C@H]5COCCO5)c([N+](=O)[O-])c4)c(Oc4cnc5[nH]ccc5c4)c3)CC2)=C(c2cc(-c3c(F)cc(C(C)(C)O)cc3F)cs2)C1 | 7.78 |
| CC1(C)CCC(CN2CCN(c3ccc(C(=O)NS(=O)(=O)c4ccc(NC[C@H]5COCCO5)c([N+](=O)[O-])c4)c(Oc4cnc5[nH]ccc5c4)c3)CC2)=C(c2cc(-c3ccc(C(F)(F)F)cc3)cs2)C1 | 7.40 |
| CC1(C)CCC(CN2CCN(c3ccc(C(=O)NS(=O)(=O)c4ccc(NC[C@H]5CC[C@](C)(O)CC5)c([N+](=O)[O-])c4)c(Oc4cnc5[nH]ccc5c4)c3)CC2)=C(c2cc(-c3ccc(C(O)(C(F)(F)F)C(F)(F)F)cc3)cs2)C1 | 7.69 |
| CC1(C)CCC(CN2CCN(c3ccc(C(=O)NS(=O)(=O)c4ccc(NC[C@H]5COCCO5)c([N+](=O)[O-])c4)c(Oc4cnc5[nH]ccc5c4)c3)CC2)=C(c2cc(-c3ccc(F)cc3)cs2)C1 | 7.62 |
| CC1(C)CCC(CN2CCN(c3ccc(C(=O)NS(=O)(=O)c4ccc(NC[C@H]5CC[C@](C)(O)CC5)c([N+](=O)[O-])c4)c(Oc4cnc5[nH]ccc5c4)c3)CC2)=C(c2cc(-c3cc(F)c(F)c(F)c3)cs2)C1 | 7.47 |
| CC(CO)c1ccc(-c2csc(C3=C(CN4CCN(c5ccc(C(=O)NS(=O)(=O)c6ccc(NC[C@H]7CC[C@](C)(O)CC7)c([N+](=O)[O-])c6)c(Oc6cnc7[nH]ccc7c6)c5)CC4)CCC(C)(C)C3)c2)c(F)c1 (stereo partly shown) | 7.69 |
| CN(C)c1ccccc1-c1csc(C2=C(CN3CCN(c4ccc(C(=O)NS(=O)(=O)c5ccc(NC[C@H]6COCCO6)c([N+](=O)[O-])c5)c(Oc5cnc6[nH]ccc6c5)c4)CC3)CCC(C)(C)C2)c1 | 7.70 |
